List of MFI values.
Target: T1, human GARP (glycoprotein A repetitions predominant, LRRC32) on the cell surface (human, UniProt Q14392 20-662)
T1 construct: whole, on cells; also called hGARP; free GARP
T1 sequence (looked up): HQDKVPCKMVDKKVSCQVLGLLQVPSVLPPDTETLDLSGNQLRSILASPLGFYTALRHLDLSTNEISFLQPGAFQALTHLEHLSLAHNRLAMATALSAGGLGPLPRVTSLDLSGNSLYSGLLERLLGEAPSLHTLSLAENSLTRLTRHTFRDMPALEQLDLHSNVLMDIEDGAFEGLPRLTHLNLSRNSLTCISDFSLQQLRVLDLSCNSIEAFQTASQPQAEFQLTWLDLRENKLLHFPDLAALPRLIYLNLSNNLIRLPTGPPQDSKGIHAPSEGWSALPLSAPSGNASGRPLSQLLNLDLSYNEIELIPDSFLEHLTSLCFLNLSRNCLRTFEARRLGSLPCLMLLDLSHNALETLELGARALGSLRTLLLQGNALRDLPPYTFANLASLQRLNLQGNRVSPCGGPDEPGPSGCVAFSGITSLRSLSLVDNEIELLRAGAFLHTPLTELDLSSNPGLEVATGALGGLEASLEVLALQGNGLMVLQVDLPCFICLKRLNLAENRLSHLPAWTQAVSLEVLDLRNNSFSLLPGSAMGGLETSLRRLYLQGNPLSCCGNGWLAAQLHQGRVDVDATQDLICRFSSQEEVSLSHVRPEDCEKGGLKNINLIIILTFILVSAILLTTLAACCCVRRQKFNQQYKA
Test: FACS, Ag(+) cells, culture supernatant, 5 ug/ml

{"binder": "huPIIO-1VH3VL1 (antibody, V domains shown, Humanized IgG from Expi293, tested as culture supernatant; also called H3L1; HuPIIO-1VH3/L1) VH: DVQLQESGPGLVKPSQTLSLTCTVSGYSITSDYAWNWIRQFPGNKLEWMGYISYSGSTSYTPSLKSRITISRDTSKNHFFLKLSSVTAADTATYYCAKSGGDYYGSSSYWYFDVWGQGTTVTVSS VL: DIVLTQSPSSLAVSLGERATMNCKSSQSLLNSRSQKNYLAWYQQKPGQPPKLLIYGASTRGSGVPDRFSGSGSGTDFTLTISSLQAEDVAVYYCQNDHSYPFTFGQGTKLEIKR", "display-unit": "MFI", "MFI": 26.7}
{"binder": "huPIIO-1VH1VL3 (antibody, V domains shown, Humanized IgG from Expi293, tested as culture supernatant; also called H1L3; HuPIIO-1VH1/L3) VH: QVQLQESGPGLVKPSQTLSLTCTVSGYSITSDYAWNWIRQFPGNKLEWMGYISYSGSTSYTPSLKSRVTISRDTSKNHFSLKLSSVTAADTAVYYCAKSGGDYYGSSSYWYFDVWGQGTMVTVSS VL: DIVLTQSPSSLAVSAGERVTMSCKSSQSLLNSRSQKNYLAWYQQKPGQPPKLLIYGASTRGSGVPDRFSGSGSGTDFTLTISSVQAEDVAVYYCQNDHSYPFTFGSGTKLEIKR", "display-unit": "MFI", "MFI": 26.3}
{"binder": "huPIIO-1VH2VL1 (antibody, V domains shown, Humanized IgG from Expi293; also called H2L1; HuPIIO-1VH2/L1) VH: QVQLQESGPGLVKPSQTLSLTCTVSGYSITSDYAWNWIRQFPGNKLEWMGYISYSGSTSYTPSLKSRITISRDTSKNHFFLKLSSVTAADTAVYYCAKSGGDYYGSSSYWYFDVWGQGTMVTVSS VL: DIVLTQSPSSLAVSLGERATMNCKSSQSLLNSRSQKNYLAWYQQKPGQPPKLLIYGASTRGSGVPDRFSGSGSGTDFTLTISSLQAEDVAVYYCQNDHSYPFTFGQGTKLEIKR", "display-unit": "MFI", "MFI": 26.8}
